The measurements presented in this section are drawn from patent US20050209278A1.

Target: MMP-1 (Homo sapiens, UniProt P03956)
Construct: made in house; host or cells: MMP-1-transfected HT-1080 cells (spent media)
Sequence (P03956 100-469): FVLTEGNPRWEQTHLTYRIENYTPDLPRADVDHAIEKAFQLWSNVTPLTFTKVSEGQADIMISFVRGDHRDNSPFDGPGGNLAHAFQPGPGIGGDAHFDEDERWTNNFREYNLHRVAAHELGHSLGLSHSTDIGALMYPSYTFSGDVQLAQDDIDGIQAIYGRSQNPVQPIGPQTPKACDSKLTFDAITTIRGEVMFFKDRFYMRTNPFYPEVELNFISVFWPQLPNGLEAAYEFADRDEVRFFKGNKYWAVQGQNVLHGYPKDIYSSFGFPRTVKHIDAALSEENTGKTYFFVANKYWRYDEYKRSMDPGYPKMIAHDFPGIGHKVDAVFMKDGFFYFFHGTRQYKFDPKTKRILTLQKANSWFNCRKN
Test: In vitro MMP inhibition, Ki determination (fluorogenic substrate II)
Assay type: biochemical
Conditions: value outside parentheses; read-out: MMP-1 Ki
Description: Several hydroxamic acids and salts thereof were analyzed in in vitro assays to determine their ability to inhibit the MMP cleavage of peptide substrates. […] and IC50 constants were calculated from the assayed hydroxamic acid-MMP interactions. […] The assays from which the Ki determinations were made were performed as follows. […] In the absence of MMP inhibitory activity, substrate II was cleaved at the Gly-Leu bond resulting in an increase of relative fluorescence. […]
pKi: −log10 of the molar value.
Property Label: pKi

| Compound | Target Or Test System | Property Label | Inequality Operator | Observed Measurement |
| --- | --- | --- | --- | --- |
| CC(C)c1ccc(-c2cnc(N3CCN(S(=O)(=O)C4(C(=O)NO)CCOCC4)CC3)s2)cc1 [Example 366] | MMP-1 (Homo sapiens, UniProt P03956) | pKi | = | 5.67 |
| CCCCOc1ccc(N2CCN(S(=O)(=O)C3(C(=O)NO)CCN(C(=O)c4cccnc4)CC3)CC2)cc1 [Example 266] | MMP-1 (Homo sapiens, UniProt P03956) | pKi | < | 5.00 |
| C#CCN1CCC(C(=O)NO)(S(=O)(=O)N2CCN(c3ccc(OCCCC)cc3)CC2)CC1 [Example 303] | MMP-1 (Homo sapiens, UniProt P03956) | pKi | < | 5.00 |
| CCCCc1ccc(C2CCN(S(=O)(=O)C3(C(=O)NO)CCNCC3)CC2)nc1 [Example 388] | MMP-1 (Homo sapiens, UniProt P03956) | pKi | < | 5.00 |
| O=C(NO)C1(S(=O)(=O)N2CCC(c3ccc(OCC(F)(F)C(F)(F)F)cc3)CC2)CCOCC1 [Example 330] | MMP-1 (Homo sapiens, UniProt P03956) | pKi | = | 5.27 |
| O=C(NO)C1(S(=O)(=O)N2CCC(c3ccc(-c4cccs4)cn3)CC2)CCOCC1 [Example 394] | MMP-1 (Homo sapiens, UniProt P03956) | pKi | = | 5.56 |
| O=C(NO)C1(S(=O)(=O)N2CCN(c3ccc(SC(F)(F)F)cc3)CC2)CCS(=O)(=O)CC1 [Example 258] | MMP-1 (Homo sapiens, UniProt P03956) | pKi | < | 5.00 |
| CCCCCC/C=C/C1CCN(S(=O)(=O)C2(C(=O)NO)CCOCC2)CC1 [Example 402] | MMP-1 (Homo sapiens, UniProt P03956) | pKi | = | 5.44 |

---

molecular target: MMP-9 (Homo sapiens, UniProt P14780); construct: made in house; host or cells: MMP-9-transfected HT1080 cells (spent media); experiment: In vitro MMP inhibition, Ki determination (fluorogenic substrate II); assay type: biochemical; conditions: value not in parenthesis
Sequence (P14780 107-707 limits assumed): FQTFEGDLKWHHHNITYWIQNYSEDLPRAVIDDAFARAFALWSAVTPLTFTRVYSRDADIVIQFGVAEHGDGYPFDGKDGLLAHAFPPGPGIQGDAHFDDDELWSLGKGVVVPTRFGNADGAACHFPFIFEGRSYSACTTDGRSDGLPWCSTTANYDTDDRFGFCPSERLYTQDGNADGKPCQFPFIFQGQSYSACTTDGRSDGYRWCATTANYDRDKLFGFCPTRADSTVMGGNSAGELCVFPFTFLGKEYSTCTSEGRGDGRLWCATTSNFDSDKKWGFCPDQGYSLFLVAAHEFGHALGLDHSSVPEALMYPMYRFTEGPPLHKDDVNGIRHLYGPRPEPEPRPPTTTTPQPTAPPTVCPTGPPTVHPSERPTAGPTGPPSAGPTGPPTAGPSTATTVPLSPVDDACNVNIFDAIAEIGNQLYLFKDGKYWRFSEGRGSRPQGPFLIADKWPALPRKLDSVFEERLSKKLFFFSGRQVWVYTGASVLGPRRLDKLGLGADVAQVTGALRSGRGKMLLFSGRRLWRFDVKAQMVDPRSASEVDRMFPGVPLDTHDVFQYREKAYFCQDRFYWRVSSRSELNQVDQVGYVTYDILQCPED

| Compound | Ki (nM) |
| --- | --- |
| CCCC(C)Cc1ccc(N2CCN(S(=O)(=O)C3(C(=O)NO)CCN(CCOC)CC3)CC2)cc1 (stereo not shown) [Example 189] | 34.7 |
| CCCCCc1ccc(N2CCN(S(=O)(=O)C3(C(=O)NO)CCN(C(=O)CC)CC3)CC2)cc1 [Example 206] | 0.62 |
| O=C(NO)C1(S(=O)(=O)N2CCN(c3cnc(CCCC(F)(F)F)cn3)CC2)CCOCC1 [Example 209] | 157 |
| O=C(NO)C1(S(=O)(=O)N2CCN(c3ncccn3)CC2)CCOCC1 [Example 106] | 235 |

---

molecular target: MMP-13 (Homo sapiens, UniProt P45452); construct: made in house; host or cells: baculovirus / insect cells; assay: In vitro MMP inhibition, Ki determination (fluorogenic substrate II); assay type: biochemical; details: MMP-13 Ki, value not in parenthesis

| Structure Smiles String | Ki [nM] |
| --- | --- |
| O=C(NO)C1(S(=O)(=O)N2CCN(c3ccc(COCC(F)(F)C(F)(F)C(F)(F)F)cc3)CC2)CCOCC1 | 2.11 |
| O=C(NO)C1(S(=O)(=O)N2CCN(c3ccc(COCC(F)(F)C(F)(F)C(F)(F)C(F)F)cc3)CC2)CCOCC1 | 1.85 |

---

target: MMP-1 (Homo sapiens, UniProt P03956); construct: made in house; host or cells: MMP-1-transfected HT-1080 cells (spent media); test: In vitro MMP inhibition, Ki determination (fluorogenic substrate II); type: biochemical; settings: value outside parentheses; read-out: MMP-1 Ki
Below, each of the compounds is paired with its reported Ki value.
Property Label: Ki (µM)

| Compound | Property Label | Inequality Operator | Observed Measurement |
| --- | --- | --- | --- |
| CCCCc1ccc(C2CCN(S(=O)(=O)C3(C(=O)NO)CCOCC3)CC2)nc1 [Example 307] | Ki | = | 6.81 |
| CCCCOc1ccc(N2CCN(S(=O)(=O)C3(C(=O)NO)CCN(C=O)CC3)CC2)cc1 [Example 269] | Ki | = | 6.4 |
| CCCCOc1ccc(N2CCN(S(=O)(=O)C3(C(=O)NO)CCN(C(C)=O)CC3)CC2)cc1 [Example 282] | Ki | > | 10 |
| COCCN1CCC(C(=O)NO)(S(=O)(=O)N2CCN(c3ncccn3)CC2)CC1 [Example 332] | Ki | = | 5.11 |
| O=C(NO)C1(S(=O)(=O)N2CCC(c3ccc(Br)cn3)CC2)CCOCC1 [Example 306] | Ki | = | 0.602 |
| CCCCOc1ccc(N2CCN(S(=O)(=O)C3(C(=O)NO)CCN(c4ccc(C)cc4)CC3)CC2)cc1F [Example 296] | Ki | > | 10 |
| COCCN1CCC(C(=O)NO)(S(=O)(=O)N2CCC(c3ccc(CCCC(F)(F)F)cc3)CC2)CC1 [Example 310] | Ki | > | 10 |
| O=C(NO)C1(S(=O)(=O)N2CCN(c3ncc(-c4cccc(-c5ccccc5)c4)s3)CC2)CCOCC1 [Example 365] | Ki | > | 10 |
| COc1ccc(-c2cnc(N3CCN(S(=O)(=O)C4(C(=O)NO)CCOCC4)CC3)s2)cc1OC [Example 371] | Ki | = | 8.25 |
| CCCC#Cc1cnc(N2CCN(S(=O)(=O)C3(C(=O)NO)CCOCC3)CC2)s1 [Example 400] | Ki | = | 3.32 |
| CC(C)(C)c1ccc(-c2cnc(N3CCN(S(=O)(=O)C4(C(=O)NO)CCOCC4)CC3)s2)cc1 [Example 347] | Ki | = | 2.77 |
| COCCN1CCC(C(=O)NO)(S(=O)(=O)N2CCC(c3ccc(CCC(F)(F)C(F)(F)F)cc3)CC2)CC1 [Example 312] | Ki | > | 10 |
| CCCCCc1cccc(N2CCN(S(=O)(=O)C3(C(=O)NO)CCOCC3)CC2)c1 [Example 356] | Ki | > | 10 |
| CCc1ccc(N2CCN(S(=O)(=O)C3(C(=O)NO)CCCCC3)CC2)nc1 [Example 263] | Ki | = | 0.605 |
| O=C(O)c1ccc(N2CCN(S(=O)(=O)C3(C(=O)NO)CCOCC3)CC2)cc1 [Example 352] | Ki | > | 10 |
| O=C(NO)C1(S(=O)(=O)N2CCN(c3ncc(-c4ccccn4)s3)CC2)CCOCC1 [Example 387] | Ki | > | 10 |

---

biological target: MMP-13 (Homo sapiens); construct: made in house; host or cells: baculovirus / insect cells; assay: In vitro MMP inhibition, Ki determination (fluorogenic substrate II); format: biochemical; settings: value outside parentheses; read-out: MMP-13 Ki
pKi: −log10 of the molar value.
Below, each of the molecules is paired with its reported pKi value.

| Molecule | pKi |
| --- | --- |
| Cc1cccc(-c2csc(N3CCN(S(=O)(=O)C4(C(=O)NO)CCOCC4)CC3)n2)c1 [Example 414] | 5.38 |
| CCCCOc1ccc(N2CCN(S(=O)(=O)C3(C(=O)NO)CCN(C)CC3)CC2)cc1 | 8.99 |
| CCCCOc1ccc(N2CCN(S(=O)(=O)C3(C(=O)NO)CCN(C=O)CC3)CC2)cc1 | 9.60 |
| O=C(NO)C1(S(=O)(=O)N2CCC(COCC(F)(F)C(F)(F)C(F)(F)F)CC2)CCOCC1 | 7.06 |

---

molecular target: MMP-2 (Homo sapiens); construct: made in house; host or cells: MMP-2-transfected p2AHT2 cells; assay: MMP-2 inhibition (in vitro Ki); assay type: biochemical; conditions: Table 9; read-out: MMP-2 Ki (IC-50)
Sequence (P08253 110-660, species assumed): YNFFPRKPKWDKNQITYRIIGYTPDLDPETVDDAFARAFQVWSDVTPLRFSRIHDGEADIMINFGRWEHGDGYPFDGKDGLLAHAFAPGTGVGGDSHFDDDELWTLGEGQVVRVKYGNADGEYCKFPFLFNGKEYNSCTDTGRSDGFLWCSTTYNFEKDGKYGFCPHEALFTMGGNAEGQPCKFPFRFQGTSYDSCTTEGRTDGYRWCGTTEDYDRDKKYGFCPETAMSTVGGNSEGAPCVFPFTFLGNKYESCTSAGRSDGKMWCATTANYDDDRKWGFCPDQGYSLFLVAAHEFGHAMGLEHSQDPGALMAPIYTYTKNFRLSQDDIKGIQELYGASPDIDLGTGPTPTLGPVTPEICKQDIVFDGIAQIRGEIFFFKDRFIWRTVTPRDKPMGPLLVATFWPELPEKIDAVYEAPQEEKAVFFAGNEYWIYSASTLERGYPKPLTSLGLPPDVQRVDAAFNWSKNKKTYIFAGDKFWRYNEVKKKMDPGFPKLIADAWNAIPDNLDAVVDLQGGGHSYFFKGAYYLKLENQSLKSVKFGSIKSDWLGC
Property Label: log10 of Ki (log10 of the value in nM)

| Structure Smiles String | log10 of Ki |
| --- | --- |
| O=C(NO)C1(S(=O)(=O)N2CCC(c3ccc(CCC(F)(F)C(F)(F)F)cn3)CC2)CCN(c2cccnc2)CC1 | 0.22 |
| CSCCOc1ccc(C2CCN(S(=O)(=O)C3(C(=O)NO)CCOCC3)CC2)nc1 | -0.51 |
| CCN(C(=O)CCCC1CCN(S(=O)(=O)C2(C(=O)NO)CCOCC2)CC1)c1ccccc1 | 1.88 |
| CCCCC#Cc1ccc(C2CCN(S(=O)(=O)C3(C(=O)NO)CCOCC3)CC2)nc1 | -0.43 |
| O=C(CCCCC1CCN(S(=O)(=O)C2(C(=O)NO)CCOCC2)CC1)Nc1ccc(OC(F)(F)F)cc1 | 1.47 |
| O=C(NO)C1(S(=O)(=O)N2CCC(F)(c3ccc(CCCC(F)(F)F)cn3)CC2)CCOCC1 | 1.56 |
| O=C(NO)C1(S(=O)(=O)N2CCC(c3ccc(C(F)(F)CCC(F)(F)F)cn3)CC2)CCOCC1 | 0.52 |
| O=C(NO)C1(S(=O)(=O)N2CCC(c3ccc(CCC4CC4)cn3)CC2)CCOCC1 | -0.24 |
